Reported inhibition is given for each of the following molecules.
# TESTED_TARGET: Tyrosine-protein kinase Lck (Homo sapiens);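 note: reported Lck percent inhibition is a mean value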
# CONDITION_DESCRIPTION: at 1 µM
Response body: numeric value in %, unit text excluded.

molecule=CCS(=O)(=O)c1ccc(OC)c(Nc2ncc(-c3cccc(OC)c3)o2)c1 result_type=inhibition result_value=47.6

Form field inhibition, entry `N#Cc1cccc(Nc2nccc(-c3cnn4ncccc34)n2)c1` : 18.3

Form field inhibition, entry `CS(=O)(=O)Nc1cccc(-c2ccc3c(NC(=O)C4CC4)n[nH]c3c2)c1` : 6.14

Form field inhibition, entry `Oc1cccc(-c2nc(-c3ccccc3)[nH]c2-c2ccncc2)c1` : 17.7

Form field inhibition, entry `CN(C)CCCn1c(-c2nonc2N)nc2cnccc21` : 4.6

Form field inhibition, entry `COc1cccc(-n2nc(C)c3c(N/N=C(\C)c4ccncc4)ncnc32)c1` : 2.98

Form field inhibition, entry `O=C1Nc2ccccc2/C1=C/Nc1ccc2[nH]c(=O)[nH]c2c1` : 11.9

Form field inhibition, entry `COc1cc2ncnc(Nc3ccc4c(cnn4Cc4ccccc4)c3)c2cc1OC` : 61.1

Form field inhibition, entry `Cc1cc(Cl)cc2c1NC(=O)C2=NNc1ccc(S(N)(=O)=O)cc1` : 1.89

Form field inhibition, entry `COc1cc2ncn(-c3cc(OCc4ccccc4S(C)(=O)=O)c(C#N)s3)c2cc1OC` : 69.2

Form field inhibition, entry `COc1cc2ncnc(Nc3ccc(C)c(O)c3)c2cc1OC` : 72.2

Form field inhibition, entry `Cc1nc(-c2ccccc2)n2nc(NCCCN3CCOCC3)ncc12` : 5.01

Form field inhibition, entry `O=C1Nc2ccc(-c3cccnc3)cc2C1=Cc1cc(Br)c(O)c(Br)c1` : 13.2

Data origin, for the record: ChEMBL document CHEMBL1961873
